Read-out: Glutathione S-Transferase (GSTA2), GSTA2 (gene 2939)
Assay Info: LTEA_HepaRG_GSTA2: Life Technologies and Expression Analysis (LTEA) Assay for Glutathione S-Transferase (GSTA2) using HepaRG (AID 2283497)
Settings: mRNA level, 48 h; actives raise or lower the signal
Activity calls are given as the source filed them. The calls were made as follows: active = hit-call score of the fitted dose curve at least 0.9, where 1 is the maximum; inactive = score below 0.9.
Lab note: assign the record to one of true (active), false (inactive)

Would you please look over these solved cases?
1) O=C(c1ccccc1)c1ccccc1 : false
2) OCC(CO)(CBr)CBr : false
3) Cc1[nH]nc2c1N=C(c1ccccc1Cl)c1cc([N+](=O)[O-])ccc1N2 : true
4) CC(=O)Nc1ccc(O)cc1 : false
5) O=C(CCCN1CCC(O)(c2ccc(Cl)cc2)CC1)c1ccc(F)cc1 : true
6) O=C1NS(=O)(=O)c2ccccc21 : false

How was CN(Cc1cnc2nc(N)nc(N)c2n1)c1ccc(C(=O)N[C@@H](CCC(=O)O)C(=O)O)cc1 classified in this test?
true

Thanks! And CCCCC=O ?
false

Thanks! And CCC(C)c1ccccc1O (configuration not stated) ?
false

Thanks! And N=C(N)c1ccc(OCCCCCOc2ccc(C(=N)N)cc2)cc1 ?
true

Thanks! And CN(C)CCOC(c1ccccc1)c1ccccc1 ?
false

Thanks! And CS(=O)(=O)c1ccc([C@@H](CC2CCCC2)C(=O)Nc2cnccn2)cc1Cl ?
true

* * *

Assay Info: BSK_hDFCGF_Proliferation: Cell Proliferation Assessment in the BioMAP Diversity Plus: hDFCGF Assay (AID 2283059);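 also: curves fitted for both rise and fall of signal versus DMSO baseline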
Settings: primary human foreskin fibroblasts
Active and inactive are the calls of the source. The calls were made as follows: active = hit-call score of the fitted dose curve at least 0.9, where 1 is the maximum; inactive = score below 0.9.
Lab note: assign the record to one of yes = active, no = inactive

Would you please look over these solved cases?
1) CCC(C)c1ccccc1O (stereo unspecified) : no
2) C[C@]12CC[C@@H]3c4ccc(O)cc4CC[C@H]3[C@@H]1C[C@@H](O)[C@@H]2O : no
3) COc1cc(OC)nc(NC(=O)NS(=O)(=O)Nc2ccccc2C(=O)N(C)C)n1 : no
4) Cc1[nH]nc2c1N=C(c1ccccc1Cl)c1cc([N+](=O)[O-])ccc1N2 : yes
5) Oc1cc2ccccc2cc1O : yes

How was OCC(F)(F)C(F)(F)C(F)(F)C(F)(F)C(F)(F)C(F)(F)C(F)(F)C(F)(F)C(F)(F)C(F)(F)C(F)(F)F classified in this test?
no

* * *

Read-out: CYP4A11 (gene 1579)
Assay Info: LTEA_HepaRG_CYP4A11: Life Technologies and Expression Analysis (LTEA) Assay for CYP4A11 using HepaRG (AID 2283486)
Settings: mRNA level, 48 h; actives raise or lower the signal
Active and inactive are the calls of the source. The calls were made as follows: active = hit-call score of the fitted dose curve at least 0.9, where 1 is the maximum; inactive = score below 0.9.
Lab note: assign the record to one of label 1 = active, label 0 = inactive

1) CCCCCCCCCCCCCCC : label 0

How was Cc1[nH]nc2c1N=C(c1ccccc1Cl)c1cc([N+](=O)[O-])ccc1N2 classified in this test?
label 1

Thanks! And CN(Cc1cnc2nc(N)nc(N)c2n1)c1ccc(C(=O)N[C@@H](CCC(=O)O)C(=O)O)cc1 ?
label 0

Thanks! And N=C(N)c1ccc(OCCCCCOc2ccc(C(=N)N)cc2)cc1 ?
label 1

Thanks! And CCCCC(CC)C(=O)O (stereo not given) ?
label 0

* * *

Read-out: Vascular cell adhesion molecule 1 (VCAM1), VCAM1 (gene 7412)
Assay Info: BSK_MyoF_VCAM1: BioMAP Diversity Plus: MyoF Assay for Vascular cell adhesion molecule 1 (VCAM1) Biomarker Activity (AID 2284231)
Settings: primary human lung fibroblasts
The source made the active and inactive calls. How the source made its calls: active means hit-call score of the fitted dose curve at least 0.9, where 1 is the maximum; inactive means score below 0.9.
Observed Property: AC50

1. Cc1cccc2c1ccc1ccccc12 : inactive
2. Oc1cc2ccccc2cc1O : inactive
3. CN(CCO)S(=O)(=O)C(F)(F)C(F)(F)C(F)(F)C(F)(F)C(F)(F)C(F)(F)C(F)(F)C(F)(F)F : inactive
4. COc1cc(OC)nc(NC(=O)NS(=O)(=O)Nc2ccccc2C(=O)N(C)C)n1 : inactive

Entry CC[N+](CC)(CC)Cc1ccccc1 has what AC50?
inactive

Thanks! And CC1=NN(c2ccccc2)C(=O)C1 ?
inactive

Thanks! And O=P(O)(O)CCC(F)(F)C(F)(F)C(F)(F)C(F)(F)C(F)(F)C(F)(F)F ?
inactive

Thanks! And OCCN1CN(CCO)CN(CCO)C1 ?
inactive

Thanks! And CN(C)c1ccc(C(=C2C=CC(=[N+](C)C)C=C2)c2ccccc2)cc1 ?
0.0764 µM (active)

* * *

System: Brachyury (BRA) Protein Expression, Deisenroth Lab, TBXT (gene 6862)
Assay Info: CCTE_Deisenroth_DEVTOX-GLR_Pluri_BRA: CCTE's DevTox GLR-Pluri Assay Evaluation of Brachyury (BRA) Protein Expression, Deisenroth Lab (AID 2284429)
Results filed as inconclusive are left out. The source made the active and inactive calls. How the source made its calls: active means hit-call score of the fitted dose curve at least 0.9, where 1 is the maximum; inconclusive means response in the unintended direction; inactive means score below 0.9.
Lab note: assign the record to one of active, inactive

Would you please look over these solved cases?
1. O=C1NS(=O)(=O)c2ccccc21 : inactive
2. CCCCc1oc2ccccc2c1C(=O)c1cc(I)c(OCCN(CC)CC)c(I)c1 : active
3. CN(C)CCOC(c1ccccc1)c1ccccc1 : active

We now examine a further compound.
How was CC(=O)Nc1ccc(O)cc1 classified in this test?
inactive

* * *

Assay Info: CCTE_Deisenroth_5AR_NBTE_acceptor: CCTE's 5alpha-reductase NanoBRET Target Engagement Assay - Autofluorescence Screen, Deisenroth Lab (AID 2284321);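 also: compound fluorescence in the acceptor channel under 460 nm excitation flags autofluorescence artifacts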
Settings: actives raise or lower the signal
The source made the active and inactive calls. The calls were made as follows: active = hit-call score of the fitted dose curve at least 0.9, where 1 is the maximum; inactive = score below 0.9.
Lab note: assign the record to one of t (active), f (inactive)

Would you please look over these solved cases?
1. NC(=NCCCCCCN=C(N)/N=C(\N)Nc1ccc(Cl)cc1)/N=C(\N)Nc1ccc(Cl)cc1 : t
2. CCCCc1oc2ccccc2c1C(=O)c1cc(I)c(OCCN(CC)CC)c(I)c1 : f
3. CCCCCCCCCCCC : f
4. CCCCCCc1ccc(N)cc1 : f
5. O=C1OC2(c3ccccc31)c1cc(I)c(O)c(I)c1Oc1c2cc(I)c(O)c1I : t

We now examine a further compound.
How was COc1cc([N+](=O)[O-])ccc1N classified in this test?
f

* * *

Read-out: Transforming growth factor beta 1 (TGFb1), TGFB1 (gene 7040)
Assay Info: BSK_BE3C_TGFb1: BioMAP Diversity Plus: BE3C Assay for Transforming growth factor beta 1 (TGFb1) Biomarker Activity (AID 2283036)
Settings: primary human bronchial epithelial cells; actives raise or lower the signal
Calls of active or inactive are those of the source. The calls were made as follows: active = hit-call score of the fitted dose curve at least 0.9, where 1 is the maximum; inactive = score below 0.9.
Lab note: assign the record to one of active, inactive

Would you please look over these solved cases?
1) C=CC(=C)CC/C=C(\C)CCC=C(C)C : inactive
2) Oc1cc2ccccc2cc1O : inactive
3) O=C1c2ccc(O)c(O)c2C(=O)c2c(O)ccc(O)c21 : inactive
4) OCC(CO)(CBr)CBr : inactive
5) CCCCC=O : inactive
6) CS(=O)(=O)c1ccc([C@@H](CC2CCCC2)C(=O)Nc2cnccn2)cc1Cl : inactive
7) CC1=NN(c2ccccc2)C(=O)C1 : inactive
8) CCOC(=O)CN[C@@H](C(=O)N1CC[C@H]1C(=O)NCc1ccc(/C(N)=N/O)cc1)C1CCCCC1 : inactive
9) CC[N+](CC)(CC)Cc1ccccc1 : inactive
10) CCC(C)c1ccccc1O (stereo not drawn) : inactive

How was O=C(NCc1ncc(C(F)(F)F)cc1Cl)c1c(Cl)cccc1Cl classified in this test?
inactive

Thanks! And COC1=CC(=O)C[C@@H](C)[C@]12Oc1c(Cl)c(OC)cc(OC)c1C2=O ?
inactive

Thanks! And CCCCCCCCCCCCOS(=O)(=O)O ?
active

Thanks! And O=C(CCCN1CCC(O)(c2ccc(Cl)cc2)CC1)c1ccc(F)cc1 ?
inactive

Thanks! And O=C(NO)c1ccccc1 ?
inactive

Thanks! And CN(Cc1cnc2nc(N)nc(N)c2n1)c1ccc(C(=O)N[C@@H](CCC(=O)O)C(=O)O)cc1 ?
inactive

Thanks! And OCCN1CN(CCO)CN(CCO)C1 ?
inactive

Thanks! And COc1cc(OC)nc(NC(=O)NS(=O)(=O)Nc2ccccc2C(=O)N(C)C)n1 ?
inactive

Thanks! And CCCCC(CC)C(=O)OCCOCCOCCOCCOC(=O)C(CC)CCCC (stereo not drawn) ?
inactive

Thanks! And Cc1ccc(N=Nc2c(O)ccc3ccccc23)c(C)c1 ?
inactive

Thanks! And CCCCCc1ccc(O)cc1 ?
active

Thanks! And Cc1ccc(C(=O)c2ccccc2)cc1 ?
inactive

Thanks! And COc1cccc(O)c1 ?
inactive

* * *

Assayed System: Heat shock factor protein 1 (Homo sapiens) (UniProt Q00613)
Sequence (Q00613 whole entry, looked up): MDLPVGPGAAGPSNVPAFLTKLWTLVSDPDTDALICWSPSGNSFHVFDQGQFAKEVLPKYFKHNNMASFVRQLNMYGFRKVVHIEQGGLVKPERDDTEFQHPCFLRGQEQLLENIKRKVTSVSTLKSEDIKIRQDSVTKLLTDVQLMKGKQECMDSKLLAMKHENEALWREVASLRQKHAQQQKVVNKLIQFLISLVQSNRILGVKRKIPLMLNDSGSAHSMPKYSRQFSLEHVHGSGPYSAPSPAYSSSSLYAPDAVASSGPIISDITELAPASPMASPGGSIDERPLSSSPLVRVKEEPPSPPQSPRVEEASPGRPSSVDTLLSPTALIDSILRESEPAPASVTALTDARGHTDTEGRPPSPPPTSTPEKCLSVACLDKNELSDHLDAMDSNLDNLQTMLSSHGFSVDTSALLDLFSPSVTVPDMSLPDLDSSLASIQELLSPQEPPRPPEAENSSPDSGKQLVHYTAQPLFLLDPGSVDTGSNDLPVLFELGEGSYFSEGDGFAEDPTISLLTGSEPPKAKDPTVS
Assay Info: ATG_HSE_CIS: Attagene CIS-FACTORIAL HepG2 Assay for human Heat Shock Transcription Factor 1 (HSE) (AID 2282953)
Settings: HepG2 HSE cis-reporter, Attagene RNA transcription; actives raise or lower the signal
Calls of active or inactive are those of the source. How the source made its calls: active means hit-call score of the fitted dose curve at least 0.9, where 1 is the maximum; inactive means score below 0.9.
Lab note: assign the record to one of 1 for active, -1 for inactive

Would you please look over these solved cases?
1) c1ccc2c(c1)CCC2 : -1
2) COC1=CC(=O)C[C@@H](C)[C@]12Oc1c(Cl)c(OC)cc(OC)c1C2=O : -1
3) Cc1cccc2c1ccc1ccccc12 : -1
4) CCCCCCCCC(C)=O : -1

How was CC1=NN(c2ccccc2)C(=O)C1 classified in this test?
-1

Thanks! And CCOC(=O)CN[C@@H](C(=O)N1CC[C@H]1C(=O)NCc1ccc(/C(N)=N/O)cc1)C1CCCCC1 ?
-1

Thanks! And CCCCC=O ?
-1

Thanks! And Nc1ccc(O)c(C(=O)O)c1 ?
-1

Thanks! And COCC1CCC(CO)CC1 (stereo not given) ?
-1

Thanks! And C/C=C/C(=O)C1=C(C)CCCC1(C)C ?
1

Thanks! And CCCCCCCCCCCC(=O)NCCCN(C)C ?
1

Thanks! And C=CC(=O)OCCC(F)(F)C(F)(F)C(F)(F)C(F)(F)C(F)(F)C(F)(F)C(F)(F)C(F)(F)F ?
-1

Thanks! And OCCN1CN(CCO)CN(CCO)C1 ?
1

Thanks! And CCOCCOCC ?
-1
